system: T1, human α-CGRP 1-37 (WT) (human, C-terminal amide; N-terminal biotin when captured on the SA chip; 125I-labelled in the radioligand assay)
T1 construct: also called α-human
T1 peptide: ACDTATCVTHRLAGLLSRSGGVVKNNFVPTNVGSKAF
assay_method_text: Biacore, 37°C, Fab over CGRP on SA chip
metric: pKd
Convention used: pKd is expressed as -log10 of the molar concentration.

Here are 4 binders together with their reported answers.
- binder: "G1 variant M3 Fab (Fab, V domains shown, Fab; constant domains as m1) VH: EVQLVESGGGLVQPGGSLRLSCAASGFTFSNYWISWVRQAPGKGLEWVAEIRSESDASATHYAEAVKGRFTISRDNAKNSLYLQMNSLRAEDTAVYYCASYFDYGLAIQNYWGQGTLVTVSS VL: EIVLTQSPATLSLSPGERATLSCKASKRVTTYVSWYQQKPGQAPRLLIYGASNRYLGIPARFSGSGSGTDFTLTISSLEPEDFAVYYCSQSYNYPYTFGQGTKLEIK"
  pKd: 8.77
- binder: "G1 variant M73 Fab (Fab, V domains shown, Fab; constant domains as m1) VH: EVQLVESGGGLVQPGGSLRLSCAASGFTFSNYWISWVRQAPGKGLEWVAEIRSKSDNYATHYADAVKGRFTISRDNAKNSLYLQMNSLRAEDTAVYYCTVYFDYGLAIQNYWGQGTLVTVSS VL: EIVLTQSPATLSLSPGERATLSCKASKNVGTYVSWYQQKPGQAPRLLIYGASNRYSGIPARFSGSGSGTDFTLTISSLEPEDFAVYYCSQSYNYPYTFGQGTKLEIK"
  pKd: 8.80
- binder: "G1 variant M66 Fab (Fab, V domains shown, Fab; constant domains as m1; printed L561 read as L56I) VH: EVQLVESGGGLVQPGGSLRLSCAASGFTFSNYWISWVRQAPGKGLEWVAEIRSKSDESATHYAEAVKGRFTISRDNAKNSLYLQMNSLRAEDTAVYYCTVYFDYGLAIQNYWGQGTLVTVSS VL: EIVLTQSPATLSLSPGERATLSCKASKNVGTYVSWYQQKPGQAPRLLIYGASNRYIGIPARFSGSGSGTDFTLTISSLEPEDFAVYYCSQSYNYPYTFGQGTKLEIK"
  pKd: 8.49
- binder: "G1 variant M56 Fab (Fab, V domains shown, Fab; constant domains as m1) VH: EVQLVESGGGLVQPGGSLRLSCAASGFTFSNYWISWVRQAPGKGLEWVAEIRSKSDNSATFYAEAVKGRFTISRDNAKNSLYLQMNSLRAEDTAVYYCTVYFDYGLAIQNYWGQGTLVTVSS VL: EIVLTQSPATLSLSPGERATLSCKASKNVDTYVSWYQQKPGQAPRLLIYGASNRYSGIPARFSGSGSGTDFTLTISSLEPEDFAVYYCSQSYNYPYTFGQGTKLEIK"
  pKd: 8.52

We now examine a further binder.
Prompt: Supply reported pKd belonging to this binder: G1 variant M6 Fab (Fab, V domains shown, Fab; constant domains as m1) VH: EVQLVESGGGLVQPGGSLRLSCAASGFTFSNYWISWVRQAPGKGLEWVAEIRSESDASATHYAEAVKGRFTISRDNAKNSLYLQMNSLRAEDTAVYYCNAYFDYGLAIQNYWGQGTLVTVSS VL: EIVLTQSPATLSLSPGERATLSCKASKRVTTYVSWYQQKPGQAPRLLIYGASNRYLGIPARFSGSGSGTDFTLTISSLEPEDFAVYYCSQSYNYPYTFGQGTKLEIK
Completion: 9.08

Just for reference, patent US20190071490A1 is where these values come from.
